Let's look at some compounds and their measured melting point.

Query :: Looking for the measured melting point of CC(=O)Nc1ccc(Oc2c([N+](=O)[O-])cc(C(=O)O)cc2S(=O)(=O)NC(C)=O)cc1 , can you help?
Result :: 305 to 306 °C

---
Query :: Recorded melting point for COC(=O)CCNC(=O)C(=Cc1ccccc1)CSC(=O)c1ccccc1 , please?
Result :: 66 °C

Query :: Give the measured melting point of Cn1c2ccccc2c(=O)n2nc(C(N)=O)cc12 .
Result :: 327 to 330 °C

Query :: Any idea what its melting point is? The compound is COC(=O)c1ccsc1
Result :: 84 to 85 °C

Query :: What measured melting point goes with Cc1oc2c(C(O)CO)cccc2c1C (stereo unspecified) ?
Result :: 93 to 95 °C

Query :: Endpoint output: melting point of Nc1cc2c(cc1Br)C(=O)OC2 . Value?
Result :: 235 to 241 °C

Query :: I would be grateful if you could share the reported melting point for C=CCc1c(O)ccc2c1C(CCNC(=O)CC)CN2C=O (stereo unspecified) .
Result :: 173 to 175 °C

Query :: Give the measured melting point of Cc1cc(-n2cncn2)ncc1[N+](=O)[O-] .
Result :: 198 to 200 °C

Query :: Entry under review: CCOC(=O)c1cn(-c2ccccc2)c2ccc(CN3CCOCC3)cc2c1=O . Reported melting point?
Result :: 159 to 161 °C

Query :: Tell me the measured melting point of CO[C@]12C[C@@H](CN3CCC(O)(c4cccc(C(F)(F)F)c4)CC3)CN(C)[C@@H]1Cc1c[nH]c3cccc2c13 , please.
Result :: 135 to 140 °C

Query :: Query (compound): O=C(NCCC(F)=C(F)F)N(c1ccccc1)c1ccccc1 ; field requested: melting point
Result :: 116 to 117 °C
